Exercise: for every item that follows, state its recorded half-life.
Assay Protocol: Determination of hydrolytic stability in synthetic gastric juice (pH 1.2 buffer with pepsin)
Assay type: in vitro ADME
Measurement Conditions: 37° C., pH 1.2 with added pepsin, test ended after 24 hours, read-out: Hydrolytic stability t1/2 in synthetic gastric juice (converted)
# output: bare number, implied unit h

For record CC(OC(=O)[C@@H](C)NC(=O)OC(C)(C)C)c1ccc([C@H]2C[C@@]3(C)[C@@H](CC[C@@]3(O)C(F)(F)C(F)(F)F)[C@@H]3CCC4=CC(=O)CCC4=C32)cc1 (mixture of isomers) [Example 6] the listed half-life is 5.4

For record CC(=O)O[C@H](C)c1ccc([C@H]2C[C@@]3(C)C(CC[C@@]3(O)C(F)(F)C(F)(F)F)C3CCC4=CC(=O)CCC4=C32)cc1 (mixture of isomers) [Example 1] the listed half-life is 9.6

For record CC(OC(=O)[C@H](C)NC(=O)OC(C)(C)C)c1ccc([C@H]2C[C@@]3(C)C(CC[C@@]3(O)C(F)(F)C(F)(F)F)C3CCC4=CC(=O)CCC4=C32)cc1 (mixture of isomers) [Example 7] the listed half-life is 4.4

For record CC(OC(=O)[C@@H](NC(=O)OC(C)(C)C)C(C)C)c1ccc([C@H]2C[C@@]3(C)C(CC[C@@]3(O)C(F)(F)C(F)(F)F)C3CCC4=CC(=O)CCC4=C32)cc1 (mixture of isomers) [Example 5] the listed half-life is 3
